Values were extracted from patent US6365759B1.

# Test system: U937 human histiocytic lymphoma cells
# test-method-notes: U937 Mitotic Block Reversibility Assay
# Assay type: cell-based
measure-name: Complete Mitotic Block 10 hour
Express your answer as a number followed by its unit.

// worked examples, Complete Mitotic Block 10 hour included
C=C1CC2CCC34CC5OC6C(OC7CCC(CC(=O)CC8C(CC9OC(CCC1O2)CC(C)C9=C)OC(CC(O)CN1CCC[C@H]1CO)C8OC)OC7C6O3)C5O4 (stereo partly drawn) | 3 nM
C=C1CC2CCC34CC5OC6C(OC7CCC(CC(=O)CC8C(CC9OC(CCC1O2)CC(C)C9=C)OC(CC(O)CNC(C)(C)C)C8OC)OC7C6O3)C5O4 (stereo not drawn) | 3 nM

Next up:
Asked: Provide Complete Mitotic Block 10 hour value for the following molecule: C=C1CC2CCC34CC5OC6C(OC7CCC(CC(=O)CC8C(CC9OC(CCC1O2)CC(C)C9=C)OC(CC(O)CN1CCCCC1)C8OC)OC7C6O3)C5O4 (stereo not drawn)
Given back: 10 nM
